Test system: Staphylococcus sp.
Assay: in vitro antibacterial evaluation, MIC by broth dilution
Format: cell-based
Settings: broth dilution, 18 hours at 35° C.; strain GC 1131
Description: Methods for in vitro Antibacterial Evaluation (Table 1) […]
measurementType: MIC Staphylococcus aureus (GC 1131)

>>> reportedresult("CC(c1ccccc1)C1NC(=O)CNC(=O)C(CO)NC(=O)C(C(O)C2CNC(=N)N2C2OC(CO)C(O)C3OC(C)(C)OC32)NC(=O)C(C(O)C2CNC(=N)N2)NC(=O)C(Cc2ccc(OC3OC(CO)C(OC4OC(CO)C(O)C5OC(C)(C)OC45)C4OC(C)(C)OC34)cc2)NC1=O (centres unmarked) [Example 229a]")
">128 µg/mL"

Suppose we examine the compound CC(c1ccccc1)C1NC(=O)CNC(=O)C(CO)NC(=O)C(CC2CNC(=N)N2C2OC(CO)C(O)C(O)C2O)NC(=O)C(CC2CNC(=N)N2)NC(=O)C(Cc2ccc(OC3OC(CO)C(OC4OC(CO)C(O)C(O)C4OCc4ccc(OCc5ccccc5)cc4)C(O)C3O)cc2)NC1=O (centres unmarked) [Example 246c] ; what MIC Staphylococcus aureus (GC 1131) value has been reported?
>128 µg/mL
